Source of measurements: patent US20190382493A1

# Test system: Fab of anti-PDL1 antibody C5H9v2
# Sequence (VH, as listed by the source, chain 1 of 2): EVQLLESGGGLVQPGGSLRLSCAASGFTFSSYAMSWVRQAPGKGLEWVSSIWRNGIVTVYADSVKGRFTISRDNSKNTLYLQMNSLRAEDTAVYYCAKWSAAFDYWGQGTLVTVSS
# Sequence (VL, as listed by the source, chain 2 of 2): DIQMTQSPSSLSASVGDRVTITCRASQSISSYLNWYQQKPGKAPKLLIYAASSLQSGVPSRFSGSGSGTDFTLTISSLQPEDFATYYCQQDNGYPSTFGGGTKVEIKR
# Test protocol: binding of Fab to peptide-displaying clones
Test readout: binding result

Give the measured binding result for LCDLFKLREFPYCMG [masking moiety PL13]
binds

Give the measured binding result for LCEVLMLLQHPWCMG [masking moiety PL03]
binds

Give the measured binding result for SCLMHPHYAHDYCYV [masking moiety PL02]
binds
